Test system: recombinant NL4-3 virus (nef section replaced with Renilla luciferase gene) in MT-2 cells
measurement notes: whole plant or invertebrate
Assay type: cell-based, HIV
condition label: NL43, luciferase activity in MT-2 cells infected 4-5 days with recombinant NL4-3 virus, read-out: Activity
Counter-ions that a name gives are not always drawn.
measurement name: EC50

>>> recorded_value("O=C(N[C@@H](Cc1ccccc1)c1nccn1-c1ccc2occc2c1)NS(=O)(=O)c1ccccc1F")
"< 100 nM"
>>> recorded_value("CCOc1ccc(-n2ccnc2[C@H](Cc2ccccc2)NC(=O)NS(=O)(=O)c2ccccc2C)cc1Cl")
"< 100 nM"
>>> recorded_value("Cc1ccccc1S(=O)(=O)NC(=O)N[C@@H](Cc1ccccc1)c1nccn1-c1cccc(Br)c1")
"< 100 nM"
>>> recorded_value("COC(=O)Nc1ccc(-c2cccnc2[C@@H](Cc2ccccc2)NC(=O)NS(=O)(=O)c2ccccc2Cl)cc1 [Example 111, TFA]")
"> 1000 nM"
>>> recorded_value("Cc1ccccc1S(=O)(=O)NC(=O)N[C@@H](Cc1ccccc1)c1nccn1-c1ccc([N+](=O)[O-])cc1")
"100 to 1000 nM"
>>> recorded_value("COC(=O)Nc1ccc(-n2ccnc2[C@H](Cc2ccccc2)NC(=O)NS(=O)(=O)c2c(F)cccc2F)cc1")
"100 to 1000 nM"
>>> recorded_value("Cc1ccccc1S(=O)(=O)NC(=O)N[C@H](Cc1cc(F)cc(F)c1)c1ncccc1-c1cncc(F)c1 [Example 103, TFA]")
"> 1000 nM"
>>> recorded_value("O=C(N[C@@H](Cc1ccccc1)c1nccn1-c1ccc2c(c1)CCO2)NS(=O)(=O)c1ccccc1F")
"< 100 nM"
>>> recorded_value("Cc1ccccc1S(=O)(=O)NC(=O)N[C@@H](Cc1ccccc1)c1nccn1-c1ccc(-c2ccoc2)cc1")
"< 100 nM"
>>> recorded_value("Cc1ccccc1S(=O)(=O)NC(=O)N[C@@H](Cc1ccccc1)c1nccn1-c1ccc2scnc2c1")
"< 100 nM"
>>> recorded_value("Cc1ccccc1S(=O)(=O)NC(=O)N[C@@H](Cc1ccccc1)c1nccn1-c1ccc(F)cc1")
"100 to 1000 nM"
>>> recorded_value("COc1c(F)cc(F)cc1-c1cccnc1[C@H](Cc1cc(F)cc(F)c1)NC(=O)NS(=O)(=O)c1ccccc1C")
"> 1000 nM"
>>> recorded_value("COC(=O)Nc1ccc(-n2ccnc2[C@H](Cc2ccccc2)NC(=O)NS(=O)(=O)c2cccc(Cl)c2)cc1")
"100 to 1000 nM"
>>> recorded_value("Cc1ccccc1S(=O)(=O)NC(=O)N[C@H](Cc1ccccc1)c1ncccc1Br [Example 112, TFA]")
"> 1000 nM"
>>> recorded_value("COC(=O)Nc1ccc(-n2ccnc2[C@H](Cc2ccccc2)NC(=O)NS(=O)(=O)C2CC2)cc1")
"100 to 1000 nM"

---

EC50 overview
System: recombinant NL4-3 virus (nef section replaced with Renilla luciferase gene) in MT-2 cells
measurement notes: whole plant or invertebrate
Assay type: cell-based, HIV
condition label: NL43, luciferase activity in MT-2 cells infected 4-5 days with recombinant NL4-3 virus, read-out: EC50
Where a name gives a salt, the structure may show the parent alone.
measurement name: EC50 (nM)

>>> recorded_value("O=C(N[C@@H](Cc1ccccc1)c1nccn1-c1ccc2occc2c1)NS(=O)(=O)c1ccccc1F")
20
>>> recorded_value("Cc1ccccc1S(=O)(=O)NC(=O)N[C@H](Cc1cc(F)cc(F)c1)c1ncccc1-c1ccc(F)c(C(N)=O)c1 [Example 117, TFA]")
8340
>>> recorded_value("Cc1ccccc1S(=O)(=O)NC(=O)N[C@@H](Cc1cc(F)cc(F)c1)c1ncccc1-c1ccc(CN(C)C)cc1 [Example 120, TFA]")
360
>>> recorded_value("COC(=O)Nc1ccc(-n2ccnc2[C@H](Cc2ccccc2)NC(=O)NS(=O)(=O)c2ccccc2Cl)cc1")
60
>>> recorded_value("COc1ccc(-c2ccc(-n3ccnc3[C@H](Cc3ccccc3)NC(=O)NS(=O)(=O)c3ccccc3C)cc2)cn1")
100
>>> recorded_value("Cc1ccccc1S(=O)(=O)NC(=O)N[C@@H](Cc1ccccc1)c1nccn1-c1cnn(Cc2ccccc2)c1")
550
>>> recorded_value("COc1cccc(-n2ccnc2[C@H](Cc2ccccc2)NC(=O)NS(=O)(=O)c2ccccc2C)c1")
50

---

CC50 at 4 day overview
measurement notes: Compound cytotoxicity (CC50), XTT-based colorimetric assay
Format: cell-based
condition label: human; uninfected MT2 cells, day 4, XTT assay
Counter-ions that a name gives are not always drawn.
measurement name: CC50 at 4 day

>>> recorded_value("COc1ccc(Cn2c(Br)cnc2[C@H](Cc2ccccc2)NC(=O)NS(=O)(=O)c2ccc(C)cc2)cc1 [Example 83]")
"> 33 µM"
>>> recorded_value("Cc1ccccc1S(=O)(=O)NC(=O)N[C@@H](Cc1ccccc1)c1nccn1-c1cccc(-c2ccoc2)c1 [Example 65]")
"> 100 µM"
>>> recorded_value("Cc1ccccc1-n1ccnc1[C@H](Cc1ccccc1)NC(=O)NS(=O)(=O)c1ccccc1C [Example 28]")
"> 100 µM"
>>> recorded_value("O=C(N[C@H](Cc1cc(F)cc(F)c1)c1ncccc1-c1cccc(C(=O)NC2CC2)c1)NS(=O)(=O)c1ccccc1Cl [Example 106, TFA]")
"> 100 µM"

---

CC50 at 4 day overview
measurement notes: Compound cytotoxicity (CC50), XTT-based colorimetric assay
Format: cell-based
condition label: human; uninfected MT2 cells, day 4, XTT assay
Where a name gives a salt, the structure may show the parent alone.
measurement name: CC50 at 4 day

>>> recorded_value("COC(=O)Nc1ccc(-n2ccnc2[C@@H](Cc2ccccc2)NC(=O)NS(=O)(=O)c2ccccc2C)cc1")
"> 11 µM"
>>> recorded_value("Cc1ccccc1S(=O)(=O)NC(=O)N[C@@H](Cc1ccccc1)c1nccn1-c1ccc2scnc2c1")
"> 100 µM"
>>> recorded_value("O=C(NC(Cc1ccccc1)c1ncccc1-c1ccc2ccncc2c1)NS(=O)(=O)c1ccccc1Cl (stereo in doubt) [Example 108, TFA]")
"> 100 µM"
>>> recorded_value("Cc1ccccc1S(=O)(=O)NC(=O)N[C@@H](Cc1cc(F)cc(F)c1)c1ncccc1-c1ccc(F)c2ccccc12 [Example 132, TFA]")
"73 µM"
>>> recorded_value("Cc1ccccc1S(=O)(=O)NC(=O)N[C@@H](Cc1ccccc1)c1nccn1-c1ccc2c(c1)OCCO2")
"> 100 µM"
>>> recorded_value("Cc1ccccc1S(=O)(=O)NC(=O)N[C@@H](Cc1cc(F)cc(F)c1)c1ncccc1-c1ccc2cn(C)nc2c1 [Example 119, TFA]")
"58 µM"
>>> recorded_value("Cc1ccccc1S(=O)(=O)NC(=O)N[C@@H](Cc1ccccc1)c1nccn1-c1ccc2occc2c1")
"> 100 µM"

---

pEC50 overview
System: recombinant NL4-3 virus (nef section replaced with Renilla luciferase gene) in MT-2 cells
measurement notes: whole plant or invertebrate
Format: cell-based, HIV
condition label: NL43, luciferase activity in MT-2 cells infected 4-5 days with recombinant NL4-3 virus, read-out: Activity
pEC50: −log10 of the molar value. Where a name gives a salt, the structure may show the parent alone.
measurement name: pEC50

>>> recorded_value("COc1ccc(-n2ccnc2[C@H](Cc2ccccc2)NC(=O)NS(=O)(=O)c2ccccc2F)cc1 [Example 58]")
"> 7.00"
>>> recorded_value("Cc1ccc(-n2ccnc2[C@H](Cc2ccccc2)NC(=O)NS(=O)(=O)c2ccccc2C)cc1 [Example 13]")
"> 7.00"
>>> recorded_value("COC(=O)Nc1ccc(-n2ccnc2[C@H](Cc2ccccc2)NC(=O)NS(=O)(=O)Cc2ccccc2)cc1 [Example 47]")
"6.00 to 7.00"
>>> recorded_value("COc1ccccc1-n1ccnc1[C@H](Cc1ccccc1)NC(=O)NS(=O)(=O)c1ccccc1C [Example 16]")
"< 6.00"
>>> recorded_value("COc1ccc(-c2ccc(-n3ccnc3[C@H](Cc3ccccc3)NC(=O)NS(=O)(=O)c3ccccc3C)cc2)cn1 [Example 63]")
"6.00 to 7.00"
>>> recorded_value("Cc1cccc(-n2ccnc2[C@H](Cc2ccccc2)NC(=O)NS(=O)(=O)c2ccccc2C)c1 [Example 23]")
"> 7.00"
>>> recorded_value("COc1ccc(-c2c(C(Cc3ccccc3)NC(=O)NS(=O)(=O)c3ccccc3C)nnn2C)cc1 (racemic) [Example 87]")
"6.00 to 7.00"
>>> recorded_value("Cc1ccccc1S(=O)(=O)NC(=O)N[C@@H](Cc1ccccc1)c1nccn1-c1ccc(OCc2ccccc2)cc1 [Example 30]")
"6.00 to 7.00"
>>> recorded_value("Cc1ccccc1S(=O)(=O)NC(=O)N[C@@H](Cc1cc(F)cc(F)c1)c1ncccc1-c1ccc2cn(C)nc2c1 [Example 119, TFA]")
"6.00 to 7.00"
>>> recorded_value("Cc1ccccc1S(=O)(=O)NC(=O)NC(Cc1ccccc1)c1ncccc1-c1ccc(F)c(C(N)=O)c1 (centres unmarked) [Example 98, TFA]")
"6.00 to 7.00"
>>> recorded_value("Cc1ccccc1S(=O)(=O)NC(=O)N[C@@H](Cc1cc(F)cc(F)c1)c1nccn1-c1ccc2c(c1)CCO2 [Example 82]")
"6.00 to 7.00"
>>> recorded_value("COc1ccc(-n2ccnc2[C@H](Cc2ccccc2)NC(=O)NS(=O)(=O)c2ccccc2Cl)cc1 [Example 6]")
"> 7.00"
>>> recorded_value("Cc1ccccc1S(=O)(=O)NC(=O)N[C@@H](Cc1ccccc1)c1nccn1-c1ccc(-c2ccsc2)cc1 [Example 60]")
"> 7.00"
>>> recorded_value("Cc1ccc(-n2ccnc2[C@H](Cc2ccccc2)NC(=O)NS(=O)(=O)c2ccccc2C)cc1Cl [Example 32]")
"> 7.00"
>>> recorded_value("Cc1ccccc1S(=O)(=O)NC(=O)N[C@@H](Cc1ccccc1)c1nccn1-c1ccc(OC(F)(F)F)cc1 [Example 11]")
"> 7.00"
>>> recorded_value("COC(=O)Nc1ccc(-n2ccnc2[C@H](Cc2ccccc2)NC(=O)NS(=O)(=O)c2ccccc2OC(F)(F)F)cc1 [Example 45]")
"> 7.00"
>>> recorded_value("Cc1ccccc1S(=O)(=O)NC(=O)N[C@@H](Cc1ccccc1)c1nccn1-c1ccc2ccccc2c1 [Example 69]")
"> 7.00"
>>> recorded_value("Cc1ccccc1S(=O)(=O)NC(=O)N[C@@H](Cc1ccccc1)c1nccn1-c1cnn(Cc2ccccc2)c1 [Example 81]")
"6.00 to 7.00"
>>> recorded_value("Cc1cc(-c2cccnc2[C@@H](Cc2cc(F)cc(F)c2)NC(=O)NS(=O)(=O)c2ccccc2Cl)c(C)s1 [Example 104, TFA]")
"< 6.00"
>>> recorded_value("O=C(N[C@@H](Cc1ccccc1)c1nccn1-c1ccc(-c2ccoc2)cc1)NS(=O)(=O)c1ccccc1F [Example 64]")
"> 7.00"
